Can you tell me pIC50 for the items I'm about to list?
# System: 616215-338-R-J1-PDC complex spheroid viability
# testDetails: Anticancer human tumor 616215-338-R-J1-PDC patient-derived colon adenocarcinoma cell line growth inhibition [RAS]
# testContext: curve of first compound; second compound 1 µM
# Description: RAS pathway inhibitors in Combinations in Complex Spheroids A high-throughput screen of multi-cell type tumor spheroids was designed to identify active combinations of RAS pathway inhibitors and targeted small molecules. Complex spheroids include a stromal component modeled by human endothelial cells (HUVEC) and fibroblasts modeled by human mesenchymal stem cells (MSCs). […] Compounds. […] If the clinical Cmax for an agent had not been determined, the highest concentration tested was 10 microM. […]
pIC50: −log10 of the molar value.

Give me measured pIC50, please, for this compound: CC(Nc1ccc2c(c1)OCCn1cc(N3C(=O)OCC3C(F)F)nc1-2)C(N)=O (centres undefined) + C#Cc1c(F)ccc2cc(O)cc(-c3ncc4c(N5CC6CCC(C5)N6)nc(OCC56CCCN5CC(F)C6)nc4c3F)c12
< 5.00

Given the compound CCN1CCN(Cc2ccc(Nc3ncc(F)c(-c4cc(F)c5nc(C)n(C(C)C)c5c4)n3)nc2)CC1 + C=CC(=O)N1CCN(c2nc(OCC3CCCN3C)nc3c(F)c(-c4nc(N)cc(C)c4C(F)(F)F)c(Cl)cc23)C(C)C1 , write its reported pIC50.
< 6.00

Output measured pIC50 for this item: C[C@@H](NC(=O)c1ncnc(N)c1Cl)c1ncc(C(=O)Nc2cc(C(F)(F)F)c(Cl)cn2)s1 + C=CC(=O)N1CCN(c2nc(OCC3CCCN3C)nc3c(F)c(-c4nc(N)cc(C)c4C(F)(F)F)c(Cl)cc23)C(C)C1
< 5.00

// fetch pIC50 given entry Cc1nc(N2CCC3(CC2)COC(C)C3N)c(CO)nc1Sc1ccnc(N)c1Cl (centres undefined) + C=CC(=O)N1CCN(c2nc(OCC3CCCN3C)nc3c(F)c(-c4nc(N)cc(C)c4C(F)(F)F)c(Cl)cc23)C(C)C1
< 5.00

###

# System: 616215-338-R-J1-PDC complex spheroid viability
# testDetails: Anticancer human tumor 616215-338-R-J1-PDC cell line growth inhibition [RAS];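 note: spheroids exposed to agents for seven days before viability readout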;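 for viability, T/C: 100% = DMSO vehicle control viability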
# testContext: second compound 0.1 µM; first compound 1 µM; stronger effect = lower value
# Text: RAS pathway inhibitors in Combinations in Complex Spheroids A high-throughput screen of multi-cell type tumor spheroids was designed to identify active combinations of RAS pathway inhibitors and targeted small molecules. Complex spheroids include a stromal component modeled by human endothelial cells (HUVEC) and fibroblasts modeled by human mesenchymal stem cells (MSCs). […] Compounds. […] If the clinical Cmax for an agent had not been determined, the highest concentration tested was 10 microM. […]
measuredMetric: viability, T/C (%)
// return numeric value only (unit: %, not printed)

Give recorded viability, T/C. NC1c2ccccc2OC12CCN(c1cnc3c(N4CCCc5ncccc54)n[nH]c3n1)CC2 (centres undefined) + C#Cc1c(F)ccc2cc(O)cc(-c3ncc4c(N5CC6CCC(C5)N6)nc(OCC56CCCN5CC(F)C6)nc4c3F)c12
61.8

Specify measured viability, T/C for Nc1ccn(C2OC(CO)C(O)C2(F)F)c(=O)n1 (centres undefined) + C=CC(=O)N1CCN(c2nc(OCC3CCCN3C)nc3c(F)c(-c4nc(N)cc(C)c4C(F)(F)F)c(Cl)cc23)C(C)C1 .
14.6

Determine from records and report viability, T/C for CC(C)NCC(C(=O)N1CCN(c2ncnc3c2C(C)CC3O)CC1)c1ccc(Cl)cc1 (centres undefined) + C=CC(=O)N1CCN(c2nc(OCC3CCCN3C)nc3c(F)c(-c4nc(N)cc(C)c4C(F)(F)F)c(Cl)cc23)C(C)C1
107

Provide only the value of recorded viability, T/C for NC1c2ccccc2OC12CCN(c1cnc3c(N4CCCc5ncccc54)n[nH]c3n1)CC2 (centres undefined) + C=CC(=O)N1CCN(c2nc(OCC3CCCN3C)nc3c(F)c(-c4nc(N)cc(C)c4C(F)(F)F)c(Cl)cc23)C(C)C1
93.4

###

# Tested on: 616215-338-R-J1-PDC complex spheroid viability
# testDetails: Anticancer human tumor 616215-338-R-J1-PDC cell line growth inhibition [RAS];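 note: spheroids exposed to agents for seven days before viability readout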
# testContext: curve of first compound; second compound 0.1 µM
pIC50: −log10 of the molar value.
measuredMetric: pIC50

Give the reported pIC50 for this compound. CC(=O)OC12COC1CC(O)C1(C)C(=O)C(O)C3=C(C)C(OC(=O)C(O)C(NC(=O)OC(C)(C)C)c4ccccc4)CC(O)(C(OC(=O)c4ccccc4)C21)C3(C)C (stereo unspecified) + C=CC(=O)N1CCN(c2nc(OCC3CCCN3C)nc3c(F)c(-c4nc(N)cc(C)c4C(F)(F)F)c(Cl)cc23)C(C)C1
> 7.50

Identify the reported pIC50 for the following entry. C=CC(=O)Nc1cc(Nc2nccc(-c3cn(C)c4ccccc34)n2)c(OC)cc1N(C)CCN(C)C + C#Cc1c(F)ccc2cc(O)cc(-c3ncc4c(N5CC6CCC(C5)N6)nc(OCC56CCCN5CC(F)C6)nc4c3F)c12
< 6.00

Fill in reported pIC50 for this entry: C=CC(=O)N1CCN(c2nc(OCC3CCCN3C)nc3c(F)c(-c4nc(N)cc(C)c4C(F)(F)F)c(Cl)cc23)C(C)C1 (stereo unspecified) + C#Cc1c(F)ccc2cc(O)cc(-c3ncc4c(N5CC6CCC(C5)N6)nc(OCC56CCCN5CC(F)C6)nc4c3F)c12
< 6.00

Answer with the recorded pIC50 of CCN1CCN(Cc2ccc(Nc3ncc(F)c(-c4cc(F)c5nc(C)n(C(C)C)c5c4)n3)nc2)CC1 + C#Cc1c(F)ccc2cc(O)cc(-c3ncc4c(N5CC6CCC(C5)N6)nc(OCC56CCCN5CC(F)C6)nc4c3F)c12 only.
< 6.00

Could you please provide reported pIC50 for CC(Nc1ccc2c(c1)OCCn1cc(N3C(=O)OCC3C(F)F)nc1-2)C(N)=O (stereo unspecified) + C=CC(=O)N1CCN(c2nc(OCC3CCCN3C)nc3c(F)c(-c4nc(N)cc(C)c4C(F)(F)F)c(Cl)cc23)C(C)C1 ? Thanks!
< 5.00

Kindly indicate its recorded pIC50. Item: CCN1CCN(Cc2ccc(Nc3ncc(F)c(-c4cc(F)c5nc(C)n(C(C)C)c5c4)n3)nc2)CC1 + C=CC(=O)N1CCN(c2nc(OCC3CCCN3C)nc3c(F)c(-c4nc(N)cc(C)c4C(F)(F)F)c(Cl)cc23)C(C)C1
< 6.00

Entry C[C@@H](NC(=O)c1ncnc(N)c1Cl)c1ncc(C(=O)Nc2cc(C(F)(F)F)c(Cl)cn2)s1 + C#Cc1c(F)ccc2cc(O)cc(-c3ncc4c(N5CC6CCC(C5)N6)nc(OCC56CCCN5CC(F)C6)nc4c3F)c12 needs its pIC50 filled in; supply it.
< 5.00

Indicate its recorded pIC50; the compound in question is CCc1c2c(nc3ccc(O)cc13)-c1cc3c(c(=O)n1C2)COC(=O)[C@]3(O)CC + C=CC(=O)N1CCN(c2nc(OCC3CCCN3C)nc3c(F)c(-c4nc(N)cc(C)c4C(F)(F)F)c(Cl)cc23)C(C)C1
8.03

Give the reported pIC50 for this compound. C=CC(=O)Nc1cc(Nc2nccc(-c3cn(C)c4ccccc34)n2)c(OC)cc1N(C)CCN(C)C + C=CC(=O)N1CCN(c2nc(OCC3CCCN3C)nc3c(F)c(-c4nc(N)cc(C)c4C(F)(F)F)c(Cl)cc23)C(C)C1
< 6.00

Supply recorded pIC50 for Nc1ccn(C2OC(CO)C(O)C2(F)F)c(=O)n1 (stereo unspecified) + C#Cc1c(F)ccc2cc(O)cc(-c3ncc4c(N5CC6CCC(C5)N6)nc(OCC56CCCN5CC(F)C6)nc4c3F)c12 here.
8.00

Respond only with pIC50 recorded for O=C(c1ccc(F)c(F)c1Nc1ccc(I)cc1F)N1CC(O)([C@@H]2CCCCN2)C1 + C=CC(=O)N1CCN(c2nc(OCC3CCCN3C)nc3c(F)c(-c4nc(N)cc(C)c4C(F)(F)F)c(Cl)cc23)C(C)C1
7.05

###

# System: 616215-338-R-J1-PDC complex spheroid viability
# testDetails: Anticancer human tumor 616215-338-R-J1-PDC cell line growth inhibition [RAS];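 note: spheroids exposed to agents for seven days before viability readout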
# testContext: curve of first compound; second compound 0.00949 µM
measuredMetric: IC50 (nM)
Answer format: numeric, nM implied, no suffix.

Note down IC50 recorded for CCc1c2c(nc3ccc(O)cc13)-c1cc3c(c(=O)n1C2)COC(=O)[C@]3(O)CC + CCn1c(-c2cccnc2C(C)OC)c2c3cc(ccc31)N1CCOC(CC(NC(=O)C(C(C)C)N(C)C(=O)C3(F)CCN(C(=O)C#CC(C)(C)N(C)C)CC3)C(=O)N3CCCC(N3)C(=O)OCC(C)(C)C2)C1
14.2

Indicate the recorded IC50 value for this compound: CC1(C)CCC(Nc2ncc(C(F)(F)F)c(-c3c[nH]c4c(P(C)(C)=O)c(C#N)ccc34)n2)CN1 (stereo not drawn) + CCn1c(-c2cc(N3CCN(C)CC3)cnc2C(C)OC)c2c3cc(ccc31)-c1csc(n1)CC(NC(=O)C1CC1C)C(=O)N1CCCC(N1)C(=O)OCC(C)(C)C2
7.66

From: PubChem BioAssay AID2060898
